Listed here: items and their measured pIC50.
Target Or System: CBL-B (Homo sapiens)
Construct: GST
Assay Remarks: CBL-B TR-FRET IC50 screening (E1/E2 ubiquitination, Biotin-Ubiquitin, Anti GST-Tb donor / Streptavidin-d2 acceptor)
Format: biochemical
Cond: CBL-B 10 nM final; 11-point titration from 100 uM; binned A-F; read-out: CBL-B TR-FRET activity IC50
pIC50: −log10 of the molar value.

[
  {
    "Compound": "Cc1cn(CCO)nc1[C@H](c1cccc(-n2cc3c(C(F)(F)F)cc(CN4CCC[C@H](C)C4)cn3c2=O)c1)C1CCC1 (single isomer, unassigned)",
    "Measurement Name": "pIC50",
    "Assay Result": "< 5.00"
  },
  {
    "Compound": "Cn1cnnc1CC1(n2cc(-n3cc4c(C(F)(F)F)cccn4c3=O)cn2)COC1",
    "Measurement Name": "pIC50",
    "Assay Result": "< 5.00"
  },
  {
    "Compound": "C[C@H]1CCCN(Cc2cc(C(F)(F)F)c3cn(-c4cccc([C@H](CC5CCC5)c5nncn5C)c4)c(=O)n3c2)C1",
    "Measurement Name": "pIC50",
    "Assay Result": "< 5.00"
  },
  {
    "Compound": "C[C@H]1CCCN(Cc2cc(C(F)(F)F)c3cn(-c4cccc([C@@H](c5nnc[nH]5)C5CCC5)c4)c(=O)n3c2)C1",
    "Measurement Name": "pIC50",
    "Assay Result": "> 7.00"
  },
  {
    "Compound": "Cn1cnnc1[C@@H](c1cccc(-n2cc3c(C(F)(F)F)cc(CN4CC[C@H](C#N)C4)cn3c2=O)c1)C1CCC1 (single isomer, unassigned)",
    "Measurement Name": "pIC50",
    "Assay Result": "> 7.00"
  }
]

Query :: Specify pIC50 for Cn1cnnc1CC1(c2cccc(-n3cc4c(C(F)(F)F)cc(CN5CCC[C@@H](O)C5)cn4c3=O)c2)COC1 and stop.
Result :: > 7.00

Query :: Specify pIC50 for Cn1cnnc1[C@@H](c1cccc(-n2cc3c(C(F)(F)F)cc(CN4CC[C@H](F)C4)cn3c2=O)c1)C1CCC1 (single isomer, unassigned) and stop.
Result :: > 7.00

Query :: Specify pIC50 for Cn1cnnc1CC1(c2cccc(-n3cc4c(C(F)(F)F)cc(CN5CCC6(CC6)C5)cn4c3=O)c2)COC1 and stop.
Result :: > 7.00

Query :: Specify pIC50 for C[C@H]1CCCN(C(c2cc(C(F)(F)F)c3cn(-c4cccc(C5(Cc6nncn6C)COC5)c4)c(=O)n3c2)C(F)(F)F)C1 (single isomer, unassigned) [Compound 196] and stop.
Result :: 6.00 to 6.52

Query :: Specify pIC50 for Cn1cnnc1CC1(c2cccc(-n3cc4c(C(F)(F)F)cc(CN5CCCC(O)CC5)cn4c3=O)c2)COC1 (single isomer, unassigned) [Compound 176] and stop.
Result :: > 7.00

Query :: Specify pIC50 for CC1CCCN(Cc2cc(C(F)(F)F)c3cn(-c4cccc([C@H](c5nncn5C)C5CCC5)c4)c(=O)n3c2)CC1 (stereo partly shown) and stop.
Result :: 6.52 to 7.00

Query :: Specify pIC50 for CC1CCN(Cc2cc(C(F)(F)F)c3cn(-c4cccc([C@H](c5nncn5C)C5CCC5)c4)c(=O)n3c2)CC1 and stop.
Result :: > 7.00

* * *

Target Or System: CBL-B (Homo sapiens)
Construct: GST
Assay Remarks: CBL-B TR-FRET IC50 screening (E1/E2 ubiquitination, Biotin-Ubiquitin, Anti GST-Tb donor / Streptavidin-d2 acceptor)
Format: biochemical
Cond: CBL-B 10 nM final; 11-point titration from 100 uM; binned A-F; read-out: CBL-B TR-FRET activity IC50
pIC50: −log10 of the molar value.
Listed here: items and their measured pIC50.

Example results:
[
  {
    "Compound": "C[C@H](c1cc(C(F)(F)F)c2cn(-c3cccc(C4(Cc5nncn5C)COC4)c3)c(=O)n2c1)N1CC[C@H](F)C1",
    "pIC50": "> 7.00"
  },
  {
    "Compound": "Cn1cnnc1[C@@H](c1cccc(-n2cc3c(C(F)(F)F)cc(CN4CCC[C@@H](C(F)(F)F)C4)cn3c2=O)c1)C1CCC1 (single isomer, unassigned)",
    "pIC50": "> 7.00"
  },
  {
    "Compound": "CC(=O)N1CC2CCC(C1)N2Cc1cc(C(F)(F)F)c2cn(-c3cccc([C@H](c4nncn4C)C4CCC4)c3)c(=O)n2c1",
    "pIC50": "6.52 to 7.00"
  },
  {
    "Compound": "C[C@H](Cc1nnc[nH]1)c1cccc(-n2cc3c(C(F)(F)F)cccn3c2=O)c1",
    "pIC50": "5.52 to 6.00"
  },
  {
    "Compound": "COCCn1cc(C)c([C@@H](c2cccc(-n3cc4c(C(F)(F)F)cc(CN5CCC[C@H](C)C5)cn4c3=O)c2)C2CCC2)n1 (single isomer, unassigned)",
    "pIC50": "< 5.00"
  }
]

Query :: Specify pIC50 for C[C@H]1CCCN(Cc2cc(C(F)(F)F)c3cn(-c4cccc([C@@H](c5nncn5C)N5CCC5)c4)c(=O)n3c2)C1 (single isomer, unassigned) and stop.
Result :: > 7.00

* * *

Target Or System: CBL-B (Homo sapiens, UniProt Q13191)
Construct: GST
Sequence (Q13191 whole entry): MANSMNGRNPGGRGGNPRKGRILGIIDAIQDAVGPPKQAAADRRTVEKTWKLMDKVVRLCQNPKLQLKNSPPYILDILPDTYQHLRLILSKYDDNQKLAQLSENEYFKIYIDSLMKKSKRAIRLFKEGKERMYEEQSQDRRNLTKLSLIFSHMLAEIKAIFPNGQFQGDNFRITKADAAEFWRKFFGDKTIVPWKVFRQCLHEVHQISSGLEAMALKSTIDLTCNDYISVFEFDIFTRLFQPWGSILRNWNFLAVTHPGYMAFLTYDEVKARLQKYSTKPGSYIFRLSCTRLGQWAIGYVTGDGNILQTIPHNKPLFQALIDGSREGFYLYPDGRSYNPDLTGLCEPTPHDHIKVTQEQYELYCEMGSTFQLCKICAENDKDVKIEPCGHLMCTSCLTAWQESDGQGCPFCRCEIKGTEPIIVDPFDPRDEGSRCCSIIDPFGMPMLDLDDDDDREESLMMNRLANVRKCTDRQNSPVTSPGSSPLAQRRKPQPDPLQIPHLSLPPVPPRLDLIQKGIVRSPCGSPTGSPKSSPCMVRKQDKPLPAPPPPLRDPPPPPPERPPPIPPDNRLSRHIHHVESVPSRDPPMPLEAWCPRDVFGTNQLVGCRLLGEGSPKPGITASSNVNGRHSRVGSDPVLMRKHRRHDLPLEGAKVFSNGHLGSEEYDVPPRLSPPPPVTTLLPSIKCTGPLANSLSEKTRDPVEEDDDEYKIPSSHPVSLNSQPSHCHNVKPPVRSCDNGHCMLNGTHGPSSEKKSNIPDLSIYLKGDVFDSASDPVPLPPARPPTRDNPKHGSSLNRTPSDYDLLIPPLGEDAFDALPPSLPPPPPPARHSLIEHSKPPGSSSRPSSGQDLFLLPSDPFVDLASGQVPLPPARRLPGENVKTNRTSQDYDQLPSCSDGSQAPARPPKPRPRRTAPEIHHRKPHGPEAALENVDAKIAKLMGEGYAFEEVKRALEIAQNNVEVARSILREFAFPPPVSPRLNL
Assay Remarks: CBL-B TR-FRET IC50 screening (E1/E2 ubiquitination, Biotin-Ubiquitin, Anti GST-Tb donor / Streptavidin-d2 acceptor)
Format: biochemical
Cond: second part of Table 2 (head 'Patent Cmpd No / Updated Activity'); same CBL-B TR-FRET IC50 bins A-F; read-out: Updated Activity
pIC50: −log10 of the molar value.
Measurement Name: pIC50

Example results:
[
  {
    "Compound": "Cn1cnnc1[C@@H](c1cccc(-n2cc3c(C(F)(F)F)cccn3c2=O)c1)C1CCC1",
    "Measurement Name": "pIC50",
    "Assay Result": "< 5.00"
  },
  {
    "Compound": "Cc1sc(CO)nc1[C@@H](c1cccc(-n2cc3c(C(F)(F)F)cc(CN4CCC[C@H](C)C4)cn3c2=O)c1)C1CCC1 (single isomer, unassigned)",
    "Measurement Name": "pIC50",
    "Assay Result": "< 5.00"
  },
  {
    "Compound": "Cn1cnnc1[C@H](c1cc(F)cc(-n2cc3c(C(F)(F)F)cc(CN4CCC5(CC5)C4)cn3c2=O)c1)C1CCC1 (single isomer, unassigned)",
    "Measurement Name": "pIC50",
    "Assay Result": "> 7.00"
  },
  {
    "Compound": "C[C@H]1CCCN(Cc2cc(C(F)(F)F)c3cn(-c4cccc([C@]5(c6nncn6C)C[C@@](C)(O)C5)c4)c(=O)n3c2)C1 (single isomer, unassigned)",
    "Measurement Name": "pIC50",
    "Assay Result": "> 7.00"
  },
  {
    "Compound": "CCn1cnnc1[C@H](c1cccc(-n2cc3c(C(F)(F)F)cc(CN4CCC[C@H](C)C4)cn3c2=O)c1)C1CCC1 (single isomer, unassigned)",
    "Measurement Name": "pIC50",
    "Assay Result": "< 5.00"
  },
  {
    "Compound": "Cc1cnoc1[C@H](c1cccc(-n2cc3c(C(F)(F)F)cc(CN4CCC[C@H](C)C4)cn3c2=O)c1)C1CCC1 (single isomer, unassigned)",
    "Measurement Name": "pIC50",
    "Assay Result": "< 5.00"
  }
]

Query :: Specify pIC50 for C[C@@H]1CN(Cc2cc(C(F)(F)F)c3cn(-c4cccc(C5(c6nncn6C)CCC5)c4)c(=O)n3c2)CCO1 and stop.
Result :: < 5.00

Query :: Specify pIC50 for C[C@H]1CCCN(Cc2cc(C(F)(F)F)c3cn(-c4cccc([C@@H](c5nc(CO)cn5C)C5CCC5)c4)c(=O)n3c2)C1 (single isomer, unassigned) and stop.
Result :: < 5.00

Query :: Specify pIC50 for C[C@H]1CCCN(Cc2cc(C(F)(F)F)c3cn(-c4cccc([C@H](c5n[nH]cc5C#N)C5CCC5)c4)c(=O)n3c2)C1 and stop.
Result :: > 7.00

* * *

Target Or System: CBL-B (Homo sapiens, UniProt Q13191)
Construct: GST
Assay Remarks: CBL-B TR-FRET IC50 screening (E1/E2 ubiquitination, Biotin-Ubiquitin, Anti GST-Tb donor / Streptavidin-d2 acceptor)
Type: biochemical
Cond: second part of Table 2 (head 'Patent Cmpd No / Updated Activity'); same CBL-B TR-FRET IC50 bins A-F; read-out: Updated Activity
pIC50: −log10 of the molar value.
Measurement Name: pIC50

Example results:
[
  {
    "Molecule": "CO[C@H]1C[C@@H]([C@@H](c2cccc(-n3cc4c(C(F)(F)F)cc(CN5CCC[C@H](C)C5)cn4c3=O)c2)c2nncn2C)C1 (single isomer, unassigned)",
    "Target Or System": "CBL-B (Homo sapiens, UniProt Q13191)",
    "Assay Result": "6.00 to 6.52"
  },
  {
    "Molecule": "CO[C@H]1C[C@@](c2cccc(-n3cc4c(C(F)(F)F)cc([C@H](C)N5CCC(F)CC5)cn4c3=O)c2)(c2nncn2C)C1 (single isomer, unassigned)",
    "Target Or System": "CBL-B (Homo sapiens, UniProt Q13191)",
    "Assay Result": "> 7.00"
  },
  {
    "Molecule": "Cn1cnnc1[C@@H](c1cccc(-n2cc3c(C(F)(F)F)cc(C(=O)N4CCC(C)(F)CC4)cn3c2=O)c1)C1CCC1",
    "Target Or System": "CBL-B (Homo sapiens, UniProt Q13191)",
    "Assay Result": "6.00 to 6.52"
  },
  {
    "Molecule": "COCCN(Cc1cc(C(F)(F)F)c2cn(-c3cccc([C@H](c4nncn4C)C4CCC4)c3)c(=O)n2c1)S(C)(=O)=O",
    "Target Or System": "CBL-B (Homo sapiens, UniProt Q13191)",
    "Assay Result": "> 7.00"
  },
  {
    "Molecule": "CO[C@H]1C[C@@](c2cccc(-n3cc4c(C(F)(F)F)cc([C@@H](C)N5CC[C@H](F)C5)cn4c3=O)c2)(c2nncn2C)C1 (single isomer, unassigned)",
    "Target Or System": "CBL-B (Homo sapiens, UniProt Q13191)",
    "Assay Result": "6.00 to 6.52"
  },
  {
    "Molecule": "COCc1nc([C@@H](c2cccc(-n3cc4c(C(F)(F)F)cc(CN5CCC[C@H](C)C5)cn4c3=O)c2)C2CCC2)c(C)s1 (single isomer, unassigned)",
    "Target Or System": "CBL-B (Homo sapiens, UniProt Q13191)",
    "Assay Result": "< 5.00"
  },
  {
    "Molecule": "Cn1cnnc1[C@H](c1cc(-c2ccncn2)cc(-n2cc3c(C(F)(F)F)cccn3c2=O)c1)C1CCC1 (single isomer, unassigned)",
    "Target Or System": "CBL-B (Homo sapiens, UniProt Q13191)",
    "Assay Result": "< 5.00"
  },
  {
    "Molecule": "Cn1cnnc1[C@@H](c1cccc(-n2cc3c(C(F)(F)F)cc(CN4CCC(C)(F)CC4)cn3c2=O)c1)C1COC1",
    "Target Or System": "CBL-B (Homo sapiens, UniProt Q13191)",
    "Assay Result": "> 7.00"
  },
  {
    "Molecule": "CCN(Cc1cc(C(F)(F)F)c2cn(-c3cccc([C@H](c4nncn4C)C4CCC4)c3)c(=O)n2c1)S(C)(=O)=O",
    "Target Or System": "CBL-B (Homo sapiens, UniProt Q13191)",
    "Assay Result": "> 7.00"
  },
  {
    "Molecule": "COC[C@H]1C[C@H]([C@@H](c2cccc(-n3cc4c(C(F)(F)F)cc(CN5CCC[C@H](C)C5)cn4c3=O)c2)c2nncn2C)C1 (single isomer, unassigned)",
    "Target Or System": "CBL-B (Homo sapiens, UniProt Q13191)",
    "Assay Result": "> 7.00"
  }
]

Query :: Specify pIC50 for COCC[C@@H](c1cccc(-n2cc3c(C(F)(F)F)cc(CN4CCC[C@H](C)C4)cn3c2=O)c1)c1nncn1C (single isomer, unassigned) and stop.
Result :: < 5.00

Query :: Specify pIC50 for Cc1sc(CO)nc1[C@H](c1cccc(-n2cc3c(C(F)(F)F)cc(CN4CCC[C@H](C)C4)cn3c2=O)c1)C1CCC1 (single isomer, unassigned) and stop.
Result :: < 5.00

Query :: Specify pIC50 for CO[C@H]1C[C@H]([C@H](c2cccc(-n3cc4c(C(F)(F)F)cc(CN5CCC[C@H](C)C5)cn4c3=O)c2)c2nncn2C)C1 (single isomer, unassigned) and stop.
Result :: 6.00 to 6.52

Query :: Specify pIC50 for C[C@H](c1cc(C(F)(F)F)c2cn(-c3cccc([C@H](c4nncn4C)C4CCC4)c3)c(=O)n2c1)N(C)Cc1cncs1 and stop.
Result :: > 7.00

Query :: Specify pIC50 for Cn1cnnc1[C@@H](c1cccc(-n2cc3c(C(F)(F)F)cc(CN4CCC(F)CC4)cn3c2=O)c1)C1COC1 and stop.
Result :: > 7.00

Data provenance is patent US20240228482A1.
